System: N140
Assay: qHTS profiling for inhibitors of Plasmodium falciparum proliferation (AID 504749); also: nearly all actives have a fitted effect of over 60% in size
Settings: P. falciparum in erythrocytes, SYBR Green DNA, 72 h; series mostly up to 28.7 µM
Results filed as inconclusive are left out. Calls of active or inactive are those of the source. Calls follow the shape of the dose curve; as a rule, active = well fitted inhibition curve with a large enough effect; inconclusive = small, poorly fitted or top-dose-only effect; inactive = flat fitted curve, though single readings scatter.
Labels: active, inactive

CS(=O)(=O)Nc1ccc([N+](=O)[O-])cc1Oc1ccccc1 : inactive
Cc1cn([C@H]2C=C[C@@H](CO)O2)c(=O)[nH]c1=O : inactive
Clc1ccccc1C(c1ccccc1)(c1ccccc1)n1ccnc1 : active
CCCNCC(O)COc1ccccc1C(=O)CCc1ccccc1 (configuration not stated) : active
NC12CC3CC(CC(C3)C1)C2 : inactive
COC(=O)Nc1nc2ccc(C(=O)c3cccs3)cc2[nH]1 : inactive
Clc1ccc(C(c2ccccc2Cl)C(Cl)Cl)cc1 (configuration not stated) : inactive

* * *

Assay: S16 Schwann cell viability assay (CellTiter-Glo assay) (AID 624031); also: nearly all actives have a fitted effect of over 70% in size
Conditions: S16 rat Schwann cells viability, 24 h; series mostly up to 57.5 µM
Inconclusive results are not listed. Calls of active or inactive are those of the source. Calls come from the whole dose curve; as a rule, active = well fitted cell-killing curve with a large enough effect; inconclusive = small, poorly fitted or top-dose-only effect, or effect the other way; inactive = flat fitted curve, though single readings scatter.
Outcome codes: active, inactive

Cc1cc(C(C)(C)C)c(O)c(C)c1CC1=NCCN1 : inactive
NCCc1cnc[nH]1 : inactive
O=C1c2c(O)ccc(O)c2C(=O)c2c(NCCNCCO)ccc(NCCNCCO)c21 : inactive
CN(C)c1nc(N(C)C)nc(N(C)C)n1 : inactive
CC(C)C(=O)Nc1ccc([N+](=O)[O-])c(C(F)(F)F)c1 : inactive
CCOC(=O)Nc1ccc(NCc2ccc(F)cc2)nc1N : inactive
CCCCc1oc2ccccc2c1C(=O)c1cc(I)c(OCCN(CC)CC)c(I)c1 : active
COC(=O)Nc1nc2ccc(C(=O)c3cccs3)cc2[nH]1 : inactive
CC(C)NCC(O)COc1ccc(CCOCC2CC2)cc1 (configuration not stated) : inactive
Cn1cnc2c1c(=O)[nH]c(=O)n2C : inactive
Clc1ccccc1C(c1ccccc1)(c1ccccc1)n1ccnc1 : inactive
Cn1c(=O)c2[nH]cnc2n(C)c1=O : inactive

* * *

Test system: PC15
Assay: qHTS profiling for inhibitors of Plasmodium falciparum proliferation (AID 504749); also: nearly all actives have a fitted effect of over 60% in size
Details: P. falciparum in erythrocytes, SYBR Green DNA, 72 h; series mostly up to 28.7 µM
Inconclusive results are not listed. The source made the active and inactive calls. Calls come from the whole dose curve; as a rule, active = well fitted inhibition curve with a large enough effect; inconclusive = small, poorly fitted or top-dose-only effect; inactive = flat fitted curve, though single readings scatter.
Classes used: active, inactive

Cc1cn([C@H]2C[C@H](N=[N+]=[N-])[C@@H](CO)O2)c(=O)[nH]c1=O : inactive
NCCc1cnc[nH]1 : inactive
Cn1c(=O)c2[nH]cnc2n(C)c1=O : inactive
NC(=O)OCC(COC(N)=O)c1ccccc1 : inactive
NCCS(=O)(=O)O : inactive
COc1ccc(CCN(C)CCCC(C#N)(c2ccc(OC)c(OC)c2)C(C)C)cc1OC (stereo not drawn) : inactive
CN1C(C(=O)Nc2ccccn2)=C(O)c2ccccc2S1(=O)=O : inactive
CCOC(=O)C(C)(C)Oc1ccc(Cl)cc1 : inactive
OCCN1CCN(CCCN2c3ccccc3Sc3ccc(C(F)(F)F)cc32)CC1 : active
CC#C[C@]1(O)CC[C@H]2[C@@H]3CCC4=CC(=O)CCC4=C3[C@@H](c3ccc(N(C)C)cc3)C[C@@]21C : active
Clc1ccc(C(c2ccccc2Cl)C(Cl)Cl)cc1 (stereo not drawn) : inactive
CN(C)C(=N)N=C(N)N : inactive
CC(C)Cc1ccc(C(C)C(=O)O)cc1 (stereo not drawn) : inactive
Nc1nnc(-c2cccc(Cl)c2Cl)c(N)n1 : inactive
Nc1nc2c(ncn2COC(CO)CO)c(=O)[nH]1 : inactive
CN1CCC(=C2c3ccccc3C=Cc3ccccc32)CC1 : inactive
O=C1N(c2ccccc2)c2ccccc2C1(Cc1ccncc1)Cc1ccncc1 : inactive
CC[N+](CC)(CC)CCOc1cccc(OCC[N+](CC)(CC)CC)c1OCC[N+](CC)(CC)CC : inactive
CN(CCOc1ccc(NS(C)(=O)=O)cc1)CCc1ccc(NS(C)(=O)=O)cc1 : inactive
CC1(CN2CCC(n3c(=O)[nH]c4ccccc43)CC2)OCc2ccccc2-n2cccc21 (stereo not drawn) : active
Clc1ccccc1C(c1ccccc1)(c1ccccc1)n1ccnc1 : active
Cc1cnc(C(=O)NCCc2ccc(S(=O)(=O)NC(=O)NC3CCCCC3)cc2)cn1 : inactive
COc1ccc2[nH]cc(CCNC(C)=O)c2c1 : inactive
COc1nc(C)nc(Cl)c1NC1=NCCN1 : inactive
Cc1cc(C(C)(C)C)c(O)c(C)c1CC1=NCCN1 : inactive
CCCCc1oc2ccccc2c1C(=O)c1cc(I)c(OCCN(CC)CC)c(I)c1 : active
CC(C)C(=O)Nc1ccc([N+](=O)[O-])c(C(F)(F)F)c1 : inactive
O=c1c(-c2ccc(O)cc2)coc2cc(O)cc(O)c12 : inactive
